Measured values drawn from patent US10988477B2 for this set.

pKi values by entry
Assay System: GCN2 kinase (Homo sapiens, UniProt Q9P2K8)
Sequence (Q9P2K8 whole entry): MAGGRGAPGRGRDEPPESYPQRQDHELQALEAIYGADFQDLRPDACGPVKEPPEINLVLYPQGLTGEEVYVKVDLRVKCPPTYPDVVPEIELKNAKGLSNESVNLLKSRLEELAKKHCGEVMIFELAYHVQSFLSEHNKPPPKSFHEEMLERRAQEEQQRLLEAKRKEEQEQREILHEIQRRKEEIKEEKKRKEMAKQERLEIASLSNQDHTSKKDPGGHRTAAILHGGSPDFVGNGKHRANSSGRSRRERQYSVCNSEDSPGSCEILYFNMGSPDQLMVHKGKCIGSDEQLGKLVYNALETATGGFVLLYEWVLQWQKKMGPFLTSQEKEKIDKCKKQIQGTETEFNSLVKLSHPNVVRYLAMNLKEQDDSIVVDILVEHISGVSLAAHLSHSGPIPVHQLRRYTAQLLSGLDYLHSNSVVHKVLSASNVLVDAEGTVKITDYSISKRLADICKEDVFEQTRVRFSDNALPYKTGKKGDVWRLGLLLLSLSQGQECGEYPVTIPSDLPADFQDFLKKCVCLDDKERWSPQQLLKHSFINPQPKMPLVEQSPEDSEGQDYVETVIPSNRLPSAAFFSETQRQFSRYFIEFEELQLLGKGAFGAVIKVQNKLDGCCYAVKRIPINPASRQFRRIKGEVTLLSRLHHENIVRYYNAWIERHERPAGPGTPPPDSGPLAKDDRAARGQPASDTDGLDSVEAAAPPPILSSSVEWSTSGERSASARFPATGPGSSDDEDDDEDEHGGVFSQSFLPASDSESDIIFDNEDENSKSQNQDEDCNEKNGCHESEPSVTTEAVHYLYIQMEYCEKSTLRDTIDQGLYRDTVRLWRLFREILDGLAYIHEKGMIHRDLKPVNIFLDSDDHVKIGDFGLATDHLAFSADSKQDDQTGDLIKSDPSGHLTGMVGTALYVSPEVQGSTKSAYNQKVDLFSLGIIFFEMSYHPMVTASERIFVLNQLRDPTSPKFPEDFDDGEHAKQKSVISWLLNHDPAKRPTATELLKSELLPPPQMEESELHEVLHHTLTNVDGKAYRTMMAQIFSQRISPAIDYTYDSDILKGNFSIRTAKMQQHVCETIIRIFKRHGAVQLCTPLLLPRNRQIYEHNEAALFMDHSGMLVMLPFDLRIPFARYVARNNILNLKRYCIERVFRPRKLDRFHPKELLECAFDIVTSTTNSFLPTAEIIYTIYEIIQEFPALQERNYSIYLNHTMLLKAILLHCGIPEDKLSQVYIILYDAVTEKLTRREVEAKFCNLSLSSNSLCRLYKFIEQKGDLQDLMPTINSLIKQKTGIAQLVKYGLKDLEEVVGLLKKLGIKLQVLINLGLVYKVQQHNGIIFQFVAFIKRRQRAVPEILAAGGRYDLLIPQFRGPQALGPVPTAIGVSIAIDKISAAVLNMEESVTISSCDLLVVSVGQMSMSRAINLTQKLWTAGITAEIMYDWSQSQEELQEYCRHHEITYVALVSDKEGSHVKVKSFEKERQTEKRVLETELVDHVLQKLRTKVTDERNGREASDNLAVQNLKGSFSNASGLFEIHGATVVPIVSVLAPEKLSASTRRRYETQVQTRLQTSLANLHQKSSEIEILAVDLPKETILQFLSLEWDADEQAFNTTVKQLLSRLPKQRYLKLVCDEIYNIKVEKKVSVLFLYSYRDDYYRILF
Assay Remarks: GCN2 enzyme inhibition assay (Transcreener ADP2 fluorescence polarization)
Format: biochemical
Condition Info: compounds of Formula II; 280 μM ATP, 4 nM GCN2 kinase
pKi: −log10 of the molar value.

// solved cases for pKi follow
Compound | Assay System | pKi
CC1CCN(c2cc(-c3cnc4ccc(C(F)F)nn34)ncn2)CC1N=S(C)(C)=O (stereo not drawn) [II-629] | GCN2 kinase (Homo sapiens, UniProt Q9P2K8) | 6.00 to 8.00
CC1(F)CCN(c2cc(-c3cnc4ccc(C(F)F)nn34)ncn2)CC1CNS(C)(=O)=O (racemic) [II-350] | GCN2 kinase (Homo sapiens, UniProt Q9P2K8) | > 8.00
CS(=O)(=O)N1CC2(CCCN(c3ccnc(-c4cnc5ccc(C(F)F)nn45)c3)C2)C1 | GCN2 kinase (Homo sapiens, UniProt Q9P2K8) | > 8.00
CNc1ccc2ncc(-c3ccnc(N4CCCC(CNS(C)(=O)=O)C4)c3)n2n1 (stereo not drawn) | GCN2 kinase (Homo sapiens, UniProt Q9P2K8) | 6.00 to 8.00
CS(=O)(=O)NCC1CC(O)CN(c2cc(-c3cnc4ccc(C(F)F)nn34)ccn2)C1 (stereo not drawn) [II-40] | GCN2 kinase (Homo sapiens, UniProt Q9P2K8) | > 8.00

Briefly, pKi measured for `CS(=O)(=O)NC[C@@H]1CCCN(c2cc(-c3cnc4ccc(C(F)F)nn34)ccn2)C1` : 6.00 to 8.00

----------
Assay System: GCN2 kinase (Homo sapiens, UniProt Q9P2K8)
Assay Remarks: GCN2 enzyme inhibition assay (Transcreener ADP2 fluorescence polarization)
Type: biochemical
Condition Info: compounds of Formula II; 280 μM ATP, 4 nM GCN2 kinase
pKi: −log10 of the molar value.
Reported pKi values follow for various compounds

Compound | pKi
CC1C(CNS(C)(=O)=O)N(C(C)C)CCN1c1cc(-c2cnc3ccc(C(F)F)nn23)ncn1 (stereo not shown) [II-507] | > 8.00

get_value(item= CC1CC(CNS(C)(=O)=O)CN1c1cc(-c2cnc3ccc(C(F)F)nn23)ncn1 (stereo not shown) [II-8] , readout=pKi) returns 6.00 to 8.00

----------
Assay System: GCN2 kinase (Homo sapiens)
Assay Remarks: GCN2 enzyme inhibition assay (Transcreener ADP2 fluorescence polarization)
Assay type: biochemical
Condition Info: Enzyme activity for compounds of Formula IV; Ki(app), 280 μM ATP, 25° C.
Consider the following molecules and their measured Ki readings.

Molecule | Ki
CC1CN(c2nccc(-c3cnc4cnc(C(F)(F)F)cn34)n2)CC(c2cn[nH]c2)O1 (single isomer, unassigned) [IV-201] | < 10 nM

Lookup result for `CS(=O)(=O)N1CCC2(CCN(c3ccnc(-c4cnc5cnc(C(F)F)cn45)n3)C2)CC1` ; measured Ki: 100 to 1000 nM

Entry `CN1CCN(Cc2cccc(-c3ccnc(-c4cnc5cnc(C(F)F)cn45)n3)c2)CC1` , Ki reported as 100 to 1000 nM

Field Ki (entry FC(F)(F)c1cn2c(-c3nccc(N4CCCC(n5ccnn5)C4)n3)cnc2cn1 (stereo not shown) [IV-600] ) reads 100 to 1000 nM

----------
Assay System: GCN2 kinase (Homo sapiens)
Assay Remarks: GCN2 enzyme inhibition assay (Transcreener ADP2 fluorescence polarization)
Assay type: biochemical
Condition Info: compounds of Formula II; 280 μM ATP, 4 nM GCN2 kinase
pKi: −log10 of the molar value.
Quick reference: pKi of the listed items.

Please review the entries below; each comes with its answer.
Molecule | Assay System | Recorded Value
CS(C)(=O)=NC1CCCN(c2cc(-c3cnc4ccc(C(F)F)nn34)ncn2)C1C(F)F (stereo not drawn) [II-700] | GCN2 kinase (Homo sapiens) | > 8.00
CN1CCN(c2cc(-c3cnc4ccc(Cl)nn34)ccn2)CC1 | GCN2 kinase (Homo sapiens) | 6.00 to 8.00
CC1CC(N=S(C)(C)=O)CN(c2cc(-c3cnc4ccc(C(N)=O)nn34)ncn2)C1 (stereo not drawn) | GCN2 kinase (Homo sapiens) | 6.00 to 8.00
CS(=O)(=O)NCc1cccc(-c2cc(-c3cnc4ccc(C(F)F)nn34)ncn2)c1 | GCN2 kinase (Homo sapiens) | > 8.00
Cc1ccc2ncc(-c3ccnc(N4CCCC(CNS(C)(=O)=O)C4)c3)n2n1 (stereo not drawn) | GCN2 kinase (Homo sapiens) | 6.00 to 8.00

Record `CS(=O)(=O)N1CC2(CCCN(c3cc(-c4cnc5ccc(C(F)F)nn45)ccn3)C2)C1` . Reported pKi: > 8.00

Value of measured pKi for the entry CC1C(CNS(C)(=O)=O)CCN1c1cc(-c2cnc3ccc(C(F)F)nn23)ncn1 (stereo not drawn) [II-244] : 6.00 to 8.00

// sample CC1C(CNS(N)(=O)=O)CCCN1c1cc(-c2cnc3ccc(C(F)F)nn23)ncn1 (stereo not drawn) , its pKi was 6.00 to 8.00

Form: molecule = CC(C)C(C)(O)C1CCCN(c2cc(-c3cnc4ccc(C(F)F)nn34)ncn2)C1 (stereo not drawn) [II-622] ; pKi = 6.00 to 8.00

----------
Measured Ki of individual entries
Assay System: UniProtKB Q9P2K8
Assay Remarks: GCN2 enzyme inhibition assay (Transcreener ADP2 fluorescence polarization)
Assay type: biochemical
Condition Info: compounds of Formula II; 280 μM ATP, 4 nM GCN2 kinase

Observe how each entry below is paired with its result.
Compound | Quantity Measured | Recorded Value
CC1(F)CCN(c2cc(-c3cnc4ccc(C(F)F)nn34)ncn2)CC1CNS(C)(=O)=O (single isomer, unassigned) [II-389] | Ki | 10 to 1000 nM
CN(C)S(=O)(=O)NCC1CN(c2cc(-c3cnc4ccc(C(F)F)nn34)ncn2)CCO1 (stereo not drawn) | Ki | 10 to 1000 nM
OC1CCN(CCC2CCN(c3cc(-c4cnc5ccc(C(F)F)nn45)ncn3)CC2)C1 (stereo not drawn) | Ki | 10 to 1000 nM
CC1CCC(CNS(C)(=O)=O)CN1c1cc(-c2cnc3ccc(C(F)F)nn23)ncc1F (stereo not drawn) | Ki | 10 to 1000 nM
C[C@@H]1CC[C@H](CNS(C)(=O)=O)CN1c1cc(-c2cnc3ccc(C(F)F)nn23)ncn1 | Ki | < 10 nM
CC1C(CNS(C)(=O)=O)CCN1c1cc(-c2cnc3ccc(C(F)F)nn23)ncn1 (stereo not drawn) [II-243] | Ki | 10 to 1000 nM
CS(=O)(=O)NC[C@H]1CCCN(c2cc(-c3cnc4ccc(C(F)F)nn34)ccn2)C1 | Ki | < 10 nM
CC1CN(c2cc(-c3cnc4ccc(C(F)F)nn34)ccn2)CC(CNS(C)(=O)=O)O1 (stereo not drawn) [II-119] | Ki | < 10 nM
CN1CCN(c2cc(-c3cnc4ccc(C(F)F)nn34)ncn2)CC1CS(N)(=O)=O (stereo not drawn) | Ki | 10 to 1000 nM
CCC(NS(C)(=O)=O)C1CN(c2cc(-c3cnc4ccc(C(F)F)nn34)ncn2)CCO1 (stereo not drawn) [II-571] | Ki | 10 to 1000 nM

Just so you know, measured Ki for NS(=O)(=O)CC1CCCN(c2cc(-c3cnc4ccc(C(F)F)nn34)ccn2)C1 (stereo not drawn) came out at 10 to 1000 nM

// Ki value for `CS(=O)(=O)N1CCC2(CC1)CN(c1cc(-c3cnc4ccc(C(F)F)nn34)ncn1)CCO2` : 10 to 1000 nM

Data point: `CS(=O)(=O)N1CCOC2(CN(c3cc(-c4cnc5ccc(C(F)F)nn45)ncn3)C2)C1` ; Ki = 10 to 1000 nM

Ki in this record for FC(F)(F)c1ccc2ncc(-c3ccnc(N4CCCC(c5c[nH]cn5)C4)c3)n2n1 (stereo not drawn) [II-740] : < 10 nM

Consider CS(=O)(=O)NCC1CN(c2cc(-c3cnc4ccc(C(F)F)nn34)ncn2)C[C@@H]2C[C@H](F)CN12 (stereo partly drawn) . Its measured Ki is < 10 nM

The reported Ki of the compound CC1C(CNS(C)(=O)=O)CCCN1c1cc(-c2cnc3ccc(C(F)F)nn23)ncn1 (stereo not drawn) [II-221] was < 10 nM

Ki in this record for FC(F)c1ccc2ncc(-c3cc(N4CCC(c5c[nH]cn5)C4)ncn3)n2n1 (stereo not drawn) : 10 to 1000 nM

// Ki lookup, compound = CC1CC(CS(C)(=O)=O)C(C)N(c2cc(-c3cnc4ccc(C(F)F)nn34)ncn2)C1 (stereo not drawn) [II-588] , result: 10 to 1000 nM

----------
Assay System: intracellular GCN2 (phosphorylation of the GCN2 substrate eIF2α) (Homo sapiens)
Sequence (Q9P2K8 whole entry): as above
Assay Remarks: GCN2 cellular inhibition assay (AlphaScreen SureFire P-eIF2α Ser51, borrelidin-treated U2OS cells)
Format: cell-based
Condition Info: compounds of Formula II; biomarker assay, phosphorylated eIF2α Ser51 in borrelidin-treated U2OS cells
Quantity Measured: IC50

A selection of reference data follows.
Molecule | IC50
CS(=O)(=O)NC[C@H]1CN(c2cc(-c3cnc4ccc(C(F)F)nn34)ncn2)C[C@H](C(F)(F)F)O1 | 0.5 to 5 µM
CN1CCN(c2cc(-c3cnc4ccc(C(F)F)nn34)ncn2)CC1C(N)=O (stereo not shown) | > 5 µM

Measured IC50 of CC1C(CNS(C)(=O)=O)CCCN1c1cc(-c2cnc3ccc(C(F)F)nn23)ncn1 (single isomer, unassigned) [II-263] : 0.5 to 5 µM

get_value(item= CS(C)(=O)=NC1CCCN(c2cc(-c3cnc4ccc(C(F)F)nn34)ncn2)C1 (single isomer, unassigned) [II-503] , readout=IC50) returns 0.5 to 5 µM
